Below is a list of entries, each paired with its recorded Kb value.
SYSTEM: mouse MC3R (Mus musculus)
ASSAY OVERVIEW: cAMP AlphaScreen antagonist assay
API: value field is a number in nM; no unit string.

C[C@@H]1NC(=O)[C@H](CN)NC(=O)[C@@H](Cc2ccccc2)NC(=O)[C@@H](Cc2ccccc2)NC(=O)[C@H](CCCNC(=N)N)NC(=O)[C@@H]2CCCN2C(=O)[C@H]2CCCN2C(=O)[C@H](Cc2ccccc2)NC1=O [Peptide 15, c[Pro-Arg-DPhe-DPhe-Dap-Ala-Phe-DPro]] ... 2000
C[C@@H]1NC(=O)[C@H](CN)NC(=O)[C@H](Cc2ccccc2)NC(=O)[C@@H](Cc2ccccc2)NC(=O)[C@@H](CCCNC(=N)N)NC(=O)[C@@H]2CCCN2C(=O)[C@H]2CCCN2C(=O)[C@H](Cc2ccccc2)NC1=O [Peptide 13, c[Pro-DArg-DPhe-Phe-Dap-Ala-Phe-DPro]] ... 1000

In the following, a different molecule is considered.
Request: Sample C[C@@H]1NC(=O)[C@H](CN)NC(=O)[C@H](Cc2ccccc2)NC(=O)[C@H](Cc2ccccc2)NC(=O)[C@@H](CCCNC(=N)N)NC(=O)[C@@H]2CCCN2C(=O)[C@H]2CCCN2C(=O)[C@H](Cc2ccccc2)NC1=O [Peptide 10, c[Pro-DArg-Phe-Phe-Dap-Ala-Phe-DPro]] — what was its Kb?
Response: 2000

----------
SYSTEM: mouse MC3R (Mus musculus, UniProt P33033)
Sequence (P33033 whole entry): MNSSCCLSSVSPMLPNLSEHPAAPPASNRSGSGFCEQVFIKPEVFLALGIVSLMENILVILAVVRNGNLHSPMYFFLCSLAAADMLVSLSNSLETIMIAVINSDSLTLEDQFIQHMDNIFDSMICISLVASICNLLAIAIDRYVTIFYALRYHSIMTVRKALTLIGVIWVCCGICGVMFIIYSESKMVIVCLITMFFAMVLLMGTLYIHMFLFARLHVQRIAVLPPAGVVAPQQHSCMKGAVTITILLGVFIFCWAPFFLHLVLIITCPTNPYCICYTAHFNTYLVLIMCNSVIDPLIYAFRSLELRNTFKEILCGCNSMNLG
ASSAY OVERVIEW: cAMP AlphaScreen antagonist assay
Below is a list of entries, each paired with its recorded Kb value.
API: value field is a number in nM; no unit string.

C[C@@H]1NC(=O)[C@H](CN)NC(=O)[C@@H](Cc2ccccc2)NC(=O)[C@H](Cc2ccccc2)NC(=O)[C@@H](CCCNC(=N)N)NC(=O)[C@@H]2CCCN2C(=O)[C@H]2CCCN2C(=O)[C@H](Cc2ccccc2)NC1=O [Peptide 14, c[Pro-DArg-Phe-DPhe-Dap-Ala-Phe-DPro]] ... 2000

In the following, a different molecule is considered.
Request: Sample C[C@@H]1NC(=O)[C@H](CN)NC(=O)[C@H](Cc2ccccc2)NC(=O)[C@@H](Cc2ccccc2)NC(=O)[C@H](CCCNC(=N)N)NC(=O)[C@@H]2CCCN2C(=O)[C@H]2CCCN2C(=O)[C@H](Cc2ccccc2)NC1=O [Peptide 11, c[Pro-Arg-DPhe-Phe-Dap-Ala-Phe-DPro]] — what was its Kb?
Response: 1200

----------
SYSTEM: UniProtKB P33033
PARTICULARS: agonist (up to 100 μM) and antagonist activity at the concentrations assayed
OBSERVED PROPERTY: MC3R activity in words

C[C@@H]1NC(=O)[C@H](CC(N)=O)NC(=O)[C@H](Cc2ccccc2)NC(=O)[C@@H](Cc2ccccc2)NC(=O)[C@@H](CCCNC(=N)N)NC(=O)[C@@H]2CCCN2C(=O)[C@H]2CCCN2C(=O)[C@H](Cc2ccccc2)NC1=O [Peptide 6, c[Pro-DArg-DPhe-Phe-Asn-Ala-Phe-DPro]] ... No activity was observed
C[C@@H]1NC(=O)[C@H](CN)NC(=O)[C@@H](Cc2ccccc2)NC(=O)[C@H](Cc2ccccc2)NC(=O)[C@H](CCCNC(=N)N)NC(=O)[C@@H]2CCCN2C(=O)[C@H]2CCCN2C(=O)[C@H](Cc2ccccc2)NC1=O [Peptide 12, c[Pro-Arg-Phe-DPhe-Dap-Ala-Phe-DPro]] ... No activity was observed

----------
SYSTEM: mouse MC5R (Mus musculus, UniProt P41149)
Sequence (P41149 whole entry): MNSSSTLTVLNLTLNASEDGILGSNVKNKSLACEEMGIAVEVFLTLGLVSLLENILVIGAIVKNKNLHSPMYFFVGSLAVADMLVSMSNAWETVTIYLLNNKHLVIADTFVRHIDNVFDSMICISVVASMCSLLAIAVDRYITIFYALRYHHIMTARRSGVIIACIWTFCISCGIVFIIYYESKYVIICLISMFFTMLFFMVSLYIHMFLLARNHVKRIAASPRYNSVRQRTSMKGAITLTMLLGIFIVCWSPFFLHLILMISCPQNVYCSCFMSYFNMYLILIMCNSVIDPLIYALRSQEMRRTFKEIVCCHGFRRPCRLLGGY
PARTICULARS: 100000.0
OBSERVED PROPERTY: mMC5R inverse agonist, percent change from basal at 100 μM (%)
API: value field is a number in %; no unit string.

Answered cases to consult:
C[C@@H]1NC(=O)[C@H](CN)NC(=O)[C@H](Cc2ccccc2)NC(=O)[C@@H](Cc2ccccc2)NC(=O)[C@@H](CCCNC(=N)N)NC(=O)[C@@H]2CCCN2C(=O)[C@H]2CCCN2C(=O)[C@H](Cc2ccccc2)NC1=O [Peptide 13, c[Pro-DArg-DPhe-Phe-Dap-Ala-Phe-DPro]] ... 30
C[C@@H]1NC(=O)[C@H](CC(N)=O)NC(=O)[C@H](Cc2ccccc2)NC(=O)[C@@H](Cc2ccccc2)NC(=O)[C@H](CCCNC(=N)N)NC(=O)[C@@H]2CCCN2C(=O)[C@H]2CCCN2C(=O)[C@H](Cc2ccccc2)NC1=O [Peptide 4, c[Pro-Arg-DPhe-Phe-Asn-Ala-Phe-DPro]] ... 25
C[C@@H]1NC(=O)[C@H](CN)NC(=O)[C@@H](Cc2ccccc2)NC(=O)[C@H](Cc2ccccc2)NC(=O)[C@@H](CCCNC(=N)N)NC(=O)[C@@H]2CCCN2C(=O)[C@H]2CCCN2C(=O)[C@H](Cc2ccccc2)NC1=O [Peptide 14, c[Pro-DArg-Phe-DPhe-Dap-Ala-Phe-DPro]] ... 20

In the following, a different compound is considered.
Request: Sample C[C@@H]1NC(=O)[C@H](CN)NC(=O)[C@@H](Cc2ccccc2)NC(=O)[C@@H](Cc2ccccc2)NC(=O)[C@@H](CCCNC(=N)N)NC(=O)[C@@H]2CCCN2C(=O)[C@H]2CCCN2C(=O)[C@H](Cc2ccccc2)NC1=O [Peptide 16, c[Pro-DArg-DPhe-DPhe-Dap-Ala-Phe-DPro]] — what was its mMC5R inverse agonist, percent change from basal at 100 μM?
Response: 15
